test system: H2009; test: Cell viability dose-response, H2009; assay type: cell-based, human; details: Homo sapiens, NCI-H2009; Tables 3 and 4; read-out: IC50 (uM) vs indicated non-small cell lung cancer cell line H2009
quantity: log10(IC50) (log10 of the value in µM)

>>> print(df.to_string())
                                    molecule     quantity  measured_result
 0  O=C(Nc1ncc(Cc2ccccc2)s1)c1ccc(C(=O)c2ccccc2)cc1  log10(IC50)             1.22
 1   COC(=O)c1ccc(C(=O)Nc2nc3cc(N)ccc3s2)cc1  log10(IC50)             1.89
 2           COc1ccc2nc(NC(=O)c3ccccc3)sc2c1  log10(IC50)             1.31
 3      O=C(Nc1nccs1)c1ccc(C(=O)c2ccccc2)cc1  log10(IC50)             1.69
 4        COc1ccc(C(=O)Nc2nc3cc(N)ccc3s2)cc1  log10(IC50)             2.14
 5    O=C(Nc1nnc(C2CCCCC2)s1)c1sc2ccccc2c1Cl  log10(IC50)             1.33
 6  CCOC(=O)c1c(NC(=O)c2ccc([N+](=O)[O-])cc2)sc2c1CCCC2  log10(IC50)             1.20
 7   COc1ccc2nc(NS(=O)(=O)c3ccc(Br)cc3)sc2c1  log10(IC50)             1.90
 8  COc1cc2sc(NC(=O)c3ccc(C(=O)c4ccccc4)cc3)nc2cc1Br  log10(IC50)             0.84
 9  O=C(Nc1nc2ccc(OCCCCBr)cc2s1)c1ccc(C(=O)c2ccccc2)cc1  log10(IC50)             1.69
10  COc1ccc2nc(NS(=O)(=O)c3ccc(C(F)(F)F)cc3)sc2c1  log10(IC50)             1.63
11     O=C(Nc1nc2ccc(O)cc2s1)c1c(F)ccc(O)c1F  log10(IC50)             1.62
12  O=C(Nc1ncc(-c2ccccc2)s1)c1ccc(C(=O)c2ccccc2)cc1  log10(IC50)             0.69
13            Cc1cccc(C(=O)Nc2nc3ccccc3s2)c1  log10(IC50)             1.73
14           COc1ccc(C(=O)Nc2nc3ccccc3s2)cc1  log10(IC50)             1.50
15  NC(=O)c1c(NC(=O)c2sc3ccccc3c2Cl)sc2c1CCCCC2  log10(IC50)             1.51
16    NC(=O)c1c(NC(=O)c2ccc(Br)o2)sc2c1CCCC2  log10(IC50)             0.51
17  COc1ccc2nc(NC(=O)c3ccc([N+](=O)[O-])cc3)sc2c1  log10(IC50)             0.45
18    O=C(Nc1nc2ccccc2s1)c1ccc(-c2ccccc2)cc1  log10(IC50)             2.10
19  O=C(Nc1nc(-c2ccccc2)cs1)c1ccc(C(=O)c2ccccc2)cc1  log10(IC50)             1.17
20        COc1ccc2nc(NC(=O)c3cccc(C)c3)sc2c1  log10(IC50)             1.39
21               O=C(Nc1nc2ccccc2s1)c1cccnc1  log10(IC50)             2.51
22     NC(=O)c1c(NC(=O)COc2ccccc2)sc2c1CCCC2  log10(IC50)            -0.06
23  O=C(Nc1cccc(NC(=O)c2sc3ccccc3c2Cl)c1)c1cccc(Cl)c1  log10(IC50)             0.97
24  COc1ccc2nc(NS(=O)(=O)CC34CCC(CC3=O)C4(C)C)sc2c1 (stereo not shown)  log10(IC50)             3.69
25  O=C(Nc1nc2c(s1)CCCC2)c1ccc(Cc2ccccc2)cc1  log10(IC50)             0.85
26          COc1ccc2nc(NC(=O)Cc3ccccc3)sc2c1  log10(IC50)             1.88
27       Cc1cc(C)nc(SCC(=O)Nc2nc3ccccc3s2)n1  log10(IC50)             2.02
28        COc1ccc2nc(NC(=O)c3ccc(F)cc3)sc2c1  log10(IC50)             1.39
29        COc1ccc2nc(NC(=O)c3ccc(N)cc3)sc2c1  log10(IC50)             1.34
30      O=C(Nc1ccc(F)c(Cl)c1)c1sc2ccccc2c1Cl  log10(IC50)             1.81
31     O=C(Nc1nc2ccc(F)cc2s1)c1sc2ccccc2c1Cl  log10(IC50)             1.54
32            Nc1ccc2sc(NC(=O)c3ccccc3)nc2c1  log10(IC50)             0.93
33  O=S(=O)(Nc1nc2ccccc2s1)c1ccc(C(F)(F)F)cc1  log10(IC50)             1.51
34  COc1ccc2nc(NC(=O)c3ccc([N+](=O)[O-])o3)sc2c1  log10(IC50)             1.13
35  COc1ccc2nc(NC(=O)c3ccc(OCc4ccccc4)cc3)sc2c1  log10(IC50)             1.22
36  O=C(c1ccccc1)c1ccc(NC(=O)c2sc3ccccc3c2Cl)cc1  log10(IC50)             1.78
37              Nc1nc2cc([N+](=O)[O-])ccc2s1  log10(IC50)             3.18
38  COc1ccc2nc(NC(=O)c3ccc(C(=O)c4ccccc4)cc3)sc2c1  log10(IC50)             0.50

Data provenance is patent US9789096B2.
